# study_system: T1, human ACTH 18-39 (human)
# T1 construct: also called CLIP; CLIP (ACTH 18-39)
# T1 peptide: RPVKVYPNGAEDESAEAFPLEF
# procedure_summary: SPR ProteOn, antibody immobilised
Reported Kd values for the following binders.
Note: unit nM is implicit; provide only the numeric part.

input: Reported Kd, binder Ab10.H (antibody, human IgG1, kappa, N297A, V domains shown, humanized form of Ab10) VH: EVQLVESGGGLVQPGGSLRLSCAASGFTVSSADMIWVRQAPGKGLESIGMIYDDGDTYYATSAKGRFTISRDNSKNTLYLQMNSLRAEDTAVYYCVKGVSSVWGQGTLVTVSS VL: DIQMTQSPSTLSASVGDRVTITCQASENIYRSLAWYQQKPGKAPKLLIYSASTLASGVPSRFSGSGSGTEFTLTISSLQPDDFATYYCQSYDGSSSSSYGVGFGGGTKVEIKR : ____
output: 13

---
input: Reported Kd, binder Ab3 (antibody, human IgG1, kappa, N297A, V domains shown, rabbit/human chimeric antibody, made in HEK-293) VH: QSLEESGGRLVTPGTPLTLTCTVSGSSLSNFDMIWVRQAPGKGLESIGIIYDFGSTYYASWAKGRFTISRTSSTTVDLKIISPTIEDTATYFCVKGVSNIWGQGTLVTVSS VL: DVVMTQTPASVEAAVGGTVTIKCQASEDISSNLAWYQQKLGQPPKLLIYSASTLASGVPSRFKGSGSGTEFTLAISDLECADAATYYCQSYDGSSSSSYGIGFGGGTEVVVKR : ____
output: 25

input: Reported Kd, binder Ab1 (antibody, human IgG1, kappa, N297A, V domains shown, rabbit/human chimeric antibody, made in HEK-293) VH: QSVKESGGRLVTPGTPLTLTCTVSGFSLSNYDMIWVRQAPGKGLESIGMIYDDGDTYYASWAKGRFTISKTSTTVDLKIISPTTEDTATYFCVKGVSNHWGPGTLVTVSS VL: DVVMTQTPASVEAAVGGTVTIKCQASQSISSYLAWYQQKPGQPPKLLIYSASTLASGVPSRFKGRGSGTEFTLTISDLECADAATYYCQSYDGSSGSSYGVGFGGGTEVVVKR : ____
output: 150
